List of T, time constant of cyanide binding (exponential fit of heme methyl peak intensities) values.
- Condition Notes: 500 μM KCN, 100 μM protein, 20 mM Tris-HCl pH 7.4, 298 K
Value Type: T, time constant of cyanide binding (exponential fit of heme methyl peak intensities) (min)

Molecule | Value Reported
WTred (A isomer): DTT-reduced wild-type human Ngb, A heme conformer (protein, UniProt Q9NPG2 1-151, looked up, DTT-reduced, heme A conformer) Neuroglobin: MERPEPELIRQSWRAVSRSPLEHGTVLFARLFALEPDLLPLFQYNCRQFSSPEDCLSSPEFLDHIRKVMLVIDAAVTNVEDLSSLEEYLASLGRKHRAVGVKLSSFSTVGESLLYMLEKCLGPAFTPATRAAWSQLYGAVVQAMSRGWDGE | 127
WTox (B isomer): oxidized wild-type human Ngb (Cys46-Cys55 disulfide bridge), B heme conformer (protein, UniProt Q9NPG2 1-151, looked up, oxidized, heme B isomer) Neuroglobin: MERPEPELIRQSWRAVSRSPLEHGTVLFARLFALEPDLLPLFQYNCRQFSSPEDCLSSPEFLDHIRKVMLVIDAAVTNVEDLSSLEEYLASLGRKHRAVGVKLSSFSTVGESLLYMLEKCLGPAFTPATRAAWSQLYGAVVQAMSRGWDGE | 97
WTred (B isomer): DTT-reduced wild-type human Ngb, B heme conformer (protein, UniProt Q9NPG2 1-151, looked up, DTT-reduced, heme B conformer) Neuroglobin: MERPEPELIRQSWRAVSRSPLEHGTVLFARLFALEPDLLPLFQYNCRQFSSPEDCLSSPEFLDHIRKVMLVIDAAVTNVEDLSSLEEYLASLGRKHRAVGVKLSSFSTVGESLLYMLEKCLGPAFTPATRAAWSQLYGAVVQAMSRGWDGE | 265
